# target-desc: T1, cynomolgus monkey CD3 E&D complex protein (Sino Biological Inc., CT032-00323H) (cynomolgus monkey, UniProt Q95LI5 22-117; Q95LI8 22-105)
# T1 construct: bought heterodimer
# T1 sequence (Q95LI5 22-117, chain 1 of 2): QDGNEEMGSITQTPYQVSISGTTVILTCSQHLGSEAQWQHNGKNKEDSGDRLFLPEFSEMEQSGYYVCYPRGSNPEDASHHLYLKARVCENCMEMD
# T1 sequence (Q95LI8 22-105, chain 2 of 2): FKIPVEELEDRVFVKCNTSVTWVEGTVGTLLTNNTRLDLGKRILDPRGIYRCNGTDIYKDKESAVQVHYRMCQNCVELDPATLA
# assay: BLI, antibody on sensor
property-label: koff (s⁻¹)
Respond numerically; units are s⁻¹ and should not be typed.

Check out these entries, answers already filled in.
binder | koff (s⁻¹)
hzsp34.13 (antibody, human IgG1, lambda, L234A L235A, V domains shown, IgG1 L234A L235A, lambda) VH: EVQLVESGGGLVQPGGSLKLSCAASGFTFNTYAMNWVRQASGKGLEWVGRIRSKYNNYATYYADSVKDRFTISRDDSKSTLYLQMNSLKTEDTAVYYCARHGNFGNSYVSWFAYWGQGTTVTVSS VL: QAVVTQEPSLTVSPGGTVTLTCRSSTGAVTTSNYANWVQQKPGQAPRTLIGGTNKRAPGVPARFSGSLLGGKAALTLLGAQPEDEAEYYCALWYSNLWVFGQGTKLTVLG | 0.00164
hzsp34.45 (antibody, human IgG1, kappa, L234A L235A, V domains shown, IgG1 L234A L235A, kappa) VH: EVQLVESGGGLVQPGGSLKLSCAASGFTFNTYAMNWVRQASGKGLEWVARIRSKYNNYATYYADSVKDRFTISRDDSKSTLYLQMNSLKTEDTAVYYCARHGNFGQSYVSWFAYWGQGTTVTVSS VL: EIVMTQSPATLSVSPGERATLSCRSSTGAVTTSNYANWVQQKPGQAPRGLIGGTNKRAPGVPARFSGSGSGDEFTLTISSLQSEDFAVYYCALWYSNLWVFGQGTKLTVLR | 0.00521

What does the data say about its koff? Entry: hzsp34.25 (antibody, human IgG1, lambda, L234A L235A, V domains shown, IgG1 L234A L235A, lambda) VH: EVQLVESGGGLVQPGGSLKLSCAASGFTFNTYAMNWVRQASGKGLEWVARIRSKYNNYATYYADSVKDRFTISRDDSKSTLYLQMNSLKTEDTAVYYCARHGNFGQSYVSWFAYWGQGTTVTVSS VL: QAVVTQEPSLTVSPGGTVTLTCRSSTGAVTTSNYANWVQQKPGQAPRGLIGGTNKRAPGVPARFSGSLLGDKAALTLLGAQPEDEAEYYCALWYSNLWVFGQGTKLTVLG
0.000913
